Test system: HEK-293T
Test: Multiplex assay against HEK293T
Type: toxicity, cell-based
Details: human, 48 h, 10 µM, compound concentration 10 uM, replicate 2
# 1 = Population Fragmented Nuclei (%) below 6% (exclusive); -1 = Population Fragmented Nuclei (%) at/above 6%

See these solved cases before continuing.
In [3]: df
Out[3]:
                                   compound  tested_target  label
0  CN1CCCC(n2nc(Cc3ccc(Cl)cc3)c3ccccc3c2=O)CC1.Cl (stereo not drawn) [AZELASTINE HYDROCHLORIDE]       HEK-293T     -1
1  NC(=O)Nc1cc(-c2cccc(F)c2)sc1C(=O)N[C@H]1CCCNC1       HEK-293T     -1
2  Cc1nc(-c2ccc(-c3ccc(C(=O)N4CCc5cc6c(cc54)C4(CCN(C)CC4)CO6)cc3)c(C)c2)no1       HEK-293T      1
3  CC(C)NCC(O)COc1ccc(CCOCC2CC2)cc1.Cl (stereo not drawn) [BETAXOLOL HYDROCHLORIDE]       HEK-293T      1
4  O=C1NCN(c2ccccc2)C12CCN(CCCOc1ccc(F)cc1)CC2 [SPIRAMIDE]       HEK-293T      1

# strict comparison: is reported Population Fragmented Nuclei (%) < 6%? input = C=CC(=O)Nc1ccc2ncnc(Nc3ccc(OCc4cccc(F)c4)c(Cl)c3)c2c1.Cc1ccc(S(=O)(=O)O)cc1
-1

Param item: CN1CCC[C@@H]1CCO[C@](C)(c1ccccc1)c1ccc(Cl)cc1.O=C(O)/C=C/C(=O)O [CLEMASTINE FUMARATE]
-1

----------
Tested on: U2OS
Test: Multiplex assay against U2OS
Assay type: toxicity, cell-based
Conditions: human, 48 h, 10 µM, compound concentration 10 uM, replicate 1
Examples of compounds with documented Total Cell Count follow.
Response field accepts a number only; no unit should be typed.

Consider the reported Total Cell Count for these compounds:
>>> print(df.to_string())
                                   compound          quantity  result_value
0  NC(=O)Nc1cc(-c2cccc(F)c2)sc1C(=O)N[C@H]1CCCNC1  Total Cell Count           188
1  Cc1nc(-c2ccc(-c3ccc(C(=O)N4CCc5cc6c(cc54)C4(CCN(C)CC4)CO6)cc3)c(C)c2)no1  Total Cell Count           225
2  C[C@@]1(C(=O)Nc2ccc(F)nc2)CCCN1c1nc(Nc2cc(C3CC3)n[nH]2)c2cccn2n1  Total Cell Count           193

Fill blank: measured Total Cell Count of the compound CN1CCCC(n2nc(Cc3ccc(Cl)cc3)c3ccccc3c2=O)CC1.Cl (centres undefined) [AZELASTINE HYDROCHLORIDE] is ____.
95

----------
Examples of molecules with documented Population Fragmented Nuclei (%) follow.
System: Fibroblast
Assay: Multiplex assay against human fibroblast
Type: toxicity, cell-based
Details: 48 h, 10 µM, compound concentration 10 uM, replicate 2
Output spec: scalar in %, unitless text.

Consider the reported Population Fragmented Nuclei (%) for these molecules:
                                   molecule  result_value
0  COc1cc(-n2cnc3cc(-c4ccc(Cl)cc4)sc3c2=O)ccc1OCCN1CCCC1            36
1  CN1CCCC(n2nc(Cc3ccc(Cl)cc3)c3ccccc3c2=O)CC1.Cl (centres undefined) [AZELASTINE HYDROCHLORIDE]            38

Fill blank: measured Population Fragmented Nuclei (%) of the molecule CN(C)C(=O)/C(C#N)=C/c1ccc(-c2nc3cnc4[nH]ccc4c3n2C2CCCCC2)o1 is ____.
31

Param item: CNc1nc(NCc2ccc(NS(C)(=O)=O)cc2Cl)cc(-c2ccccn2)n1
27

Param item: CC(C)(O)CNc1ncc(-c2ccnc(Nc3ccnc(Cl)c3)n2)c(CC2CC2)n1
23

Param item: c1cn2cc(-c3ccc4cn[nH]c4c3)nc(Nc3ccc(N4CCOCC4)cc3)c2n1
24

Param item: Cc1cc(C)cc(-c2cnc3cc(Cl)c(-c4cccc(O)c4)cc3c2OCCCN)c1
39

Param item: OC1(c2ccc(Cl)cc2)CCN(Cc2c[nH]c3ccccc23)CC1
39

Param item: COc1cccc([C@@H](C)NCCCc2ccccc2Cl)c1.Cl [TECALCET HYDROCHLORIDE]
56
